Test system: Staphylococcus aureus
Assay: Antibacterial activity against methicillin-sensitive Staphylococcus aureus 12-5 after 18 to 24 hrs by standard twofold serial dilution method
Assay type: functional

molecule | sign-qualifier | MIC / µg/mL
CCO/N=C1/CN(c2c(F)cc3c(=O)c(C(=O)O)cn([C@@H]4C[C@@H]4F)c3c2Cl)CC1CN (some centres undefined) | = | 0.25
CO/N=C1/CCN(c2nc3c(cc2F)c(=O)c(C(=O)O)cn3[C@@H]2C[C@@H]2F)CC1N (some centres undefined) | = | 2
CO/N=C1/CCN(c2c(F)cc3c(=O)c(C(=O)O)cn([C@@H]4C[C@@H]4F)c3c2OC)CC1N (some centres undefined) | < | 0.008
O=C(O)c1cn(C2CC2)c2cc(N3CCNCC3)c(F)cc2c1=O | = | 0.25

---

Test system: Mycobacterium tuberculosis
Assay: Antimycobacterial activity against Mycobacterium tuberculosis H37Rv ATCC 27294 by MABA method
Assay type: functional
# Lookup of reported log10 of MIC keyed by entry
value-kind: log10 of MIC (log10 of the value in µg/mL)

compound | log10 of MIC
CO/N=C1/CCN(c2c(F)cc3c(=O)c(C(=O)O)cn([C@@H]4C[C@@H]4F)c3c2OC)CC1N (some centres not stated) | -0.60
CO/N=C1/CCN(c2nc3c(cc2F)c(=O)c(C(=O)O)cn3[C@@H]2C[C@@H]2F)CC1N (some centres not stated) | 0.60
NC[C@H]1/C(=N\OCc2ccccc2)CN1c1nc2c(cc1F)c(=O)c(C(=O)O)cn2[C@@H]1C[C@@H]1F | 0.30
CO/N=C1/CN(c2cc3c(cc2F)c(=O)c(C(=O)O)cn3[C@@H]2C[C@@H]2F)[C@H]1CN | -0.30
NNC(=O)c1ccncc1 | -1.30
C[C@H]1COc2c(N3CCN(C)CC3)c(F)cc3c(=O)c(C(=O)O)cn1c23.C[C@H]1COc2c(N3CCN(C)CC3)c(F)cc3c(=O)c(C(=O)O)cn1c23.O | -0.60
NCC1CN(c2cc3c(cc2F)c(=O)c(C(=O)O)cn3[C@@H]2C[C@@H]2F)C/C1=N/OCc1ccccc1 (some centres not stated) | -0.60

---

Items are presented alongside their recorded MIC.
Tested on: Klebsiella pneumoniae
Experiment: Antibacterial activity against Klebsiella pneumoniae 12-2 after 18 to 24 hrs by standard twofold serial dilution method
Type: functional
value-kind: MIC (µg/mL)

compound | value-kind | uom | experimental-value
CO/N=C1/CN(c2c(F)cc3c(=O)c(C(=O)O)cn([C@@H]4C[C@@H]4F)c3c2Cl)CC1CN (stereo partly drawn) | MIC | µg/mL | 0.25
CCO/N=C1/CN(c2nc3c(cc2F)c(=O)c(C(=O)O)cn3[C@@H]2C[C@@H]2F)[C@H]1CN | MIC | µg/mL | 0.5
NC[C@H]1/C(=N\OCc2ccccc2)CN1c1nc2c(cc1F)c(=O)c(C(=O)O)cn2[C@@H]1C[C@@H]1F | MIC | µg/mL | 1
NCC1CN(c2nc3c(cc2F)c(=O)c(C(=O)O)cn3[C@@H]2C[C@@H]2F)C/C1=N/OCc1ccccc1 (stereo partly drawn) | MIC | µg/mL | 0.125
COc1c(N2C[C@@H]3CCCN[C@@H]3C2)c(F)cc2c(=O)c(C(=O)O)cn(C3CC3)c12 | MIC | µg/mL | 0.06
O=C(O)c1cn(C2CC2)c2cc(N3CCNCC3)c(F)cc2c1=O | MIC | µg/mL | 0.03
CO/N=C1/CN(c2nc3c(cc2F)c(=O)c(C(=O)O)cn3[C@@H]2C[C@@H]2F)CC1CN (stereo partly drawn) | MIC | µg/mL | 0.25
NCC1CN(c2c(F)cc3c(=O)c(C(=O)O)cn([C@@H]4C[C@@H]4F)c3c2Cl)C/C1=N/OCc1ccccc1 (stereo partly drawn) | MIC | µg/mL | 2

---

System: Staphylococcus epidermidis
Assay: Antibacterial activity against methicillin-sensitive Staphylococcus epidermidis 12-8 after 18 to 24 hrs by standard twofold serial dilution method
Assay type: functional
value-kind: MIC

compound | experimental-value
NCC1CN(c2nc3c(cc2F)c(=O)c(C(=O)O)cn3[C@@H]2C[C@@H]2F)C/C1=N/OCc1ccccc1 (some centres undefined) | 0.125 µg/mL
C[C@H]1COc2c(N3CCN(C)CC3)c(F)cc3c(=O)c(C(=O)O)cn1c23.C[C@H]1COc2c(N3CCN(C)CC3)c(F)cc3c(=O)c(C(=O)O)cn1c23.O [LEVOFLOXACIN] | 4 µg/mL
CO/N=C1/CCN(c2c(F)cc3c(=O)c(C(=O)O)cn([C@@H]4C[C@@H]4F)c3c2OC)CC1N (some centres undefined) | 0.25 µg/mL
O=C(O)c1cn(C2CC2)c2cc(N3CCNCC3)c(F)cc2c1=O [CIPROFLOXACIN] | 4 µg/mL

---

Let's look at some compounds and their measured MIC.
Test system: Klebsiella pneumoniae
Assay: Antibacterial activity against Klebsiella pneumoniae 12-2 after 18 to 24 hrs by standard twofold serial dilution method
Type: functional

compound | sign-qualifier | MIC [µg/mL]
CO/N=C1/CN(c2nc3c(cc2F)c(=O)c(C(=O)O)cn3[C@@H]2C[C@@H]2F)[C@@H]1CN | = | 0.5
CO/N=C1/CCN(c2c(F)cc3c(=O)c(C(=O)O)cn([C@@H]4C[C@@H]4F)c3c2Cl)CC1N (stereo partly drawn) | = | 2
CO/N=C1/CN(c2cc3c(cc2F)c(=O)c(C(=O)O)cn3[C@@H]2C[C@@H]2F)[C@H]1CN | = | 0.125
CO/N=C1/CN(c2c(F)cc3c(=O)c(C(=O)O)cn([C@@H]4C[C@@H]4F)c3c2OC)[C@H]1CN | = | 0.5
CO/N=C1/CCN(c2cc3c(cc2F)c(=O)c(C(=O)O)cn3[C@@H]2C[C@@H]2F)CC1N (stereo partly drawn) | = | 1
CCO/N=C1/CN(c2nc3c(cc2F)c(=O)c(C(=O)O)cn3[C@@H]2C[C@@H]2F)CC1CN (stereo partly drawn) | = | 0.06
C[C@H]1COc2c(N3CCN(C)CC3)c(F)cc3c(=O)c(C(=O)O)cn1c23.C[C@H]1COc2c(N3CCN(C)CC3)c(F)cc3c(=O)c(C(=O)O)cn1c23.O | < | 0.008
NC[C@@H]1/C(=N\OCc2ccccc2)CN1c1nc2c(cc1F)c(=O)c(C(=O)O)cn2[C@@H]1C[C@@H]1F | = | 1

---

System: Staphylococcus epidermidis
Test: Antibacterial activity against methicillin-sensitive Staphylococcus epidermidis 12-8 after 18 to 24 hrs by standard twofold serial dilution method
Format: functional

molecule | MIC, µg/mL
CCO/N=C1/CN(c2c(F)cc3c(=O)c(C(=O)O)cn([C@@H]4C[C@@H]4F)c3c2Cl)CC1CN (some centres undefined) | 2
CCO/N=C1/CN(c2cc3c(cc2F)c(=O)c(C(=O)O)cn3[C@@H]2C[C@@H]2F)[C@H]1CN | 2
NC[C@H]1/C(=N\OCc2ccccc2)CN1c1nc2c(cc1F)c(=O)c(C(=O)O)cn2[C@@H]1C[C@@H]1F | 8
CO/N=C1/CCN(c2c(F)cc3c(=O)c(C(=O)O)cn([C@@H]4C[C@@H]4F)c3c2Cl)CC1N (some centres undefined) | 4
CO/N=C1/CN(c2nc3c(cc2F)c(=O)c(C(=O)O)cn3[C@@H]2C[C@@H]2F)[C@@H]1CN | 32
CCO/N=C1/CN(c2nc3c(cc2F)c(=O)c(C(=O)O)cn3[C@@H]2C[C@@H]2F)[C@@H]1CN | 32
CCO/N=C1/CN(c2nc3c(cc2F)c(=O)c(C(=O)O)cn3[C@@H]2C[C@@H]2F)CC1CN (some centres undefined) | 0.25
CO/N=C1/CCN(c2cc3c(cc2F)c(=O)c(C(=O)O)cn3[C@@H]2C[C@@H]2F)CC1N (some centres undefined) | 2
NC[C@@H]1/C(=N\OCc2ccccc2)CN1c1cc2c(cc1F)c(=O)c(C(=O)O)cn2[C@@H]1C[C@@H]1F | 2
NCC1CN(c2cc3c(cc2F)c(=O)c(C(=O)O)cn3[C@@H]2C[C@@H]2F)C/C1=N/OCc1ccccc1 (some centres undefined) | 0.125
CO/N=C1/CN(c2cc3c(cc2F)c(=O)c(C(=O)O)cn3[C@@H]2C[C@@H]2F)[C@H]1CN | 0.125
NC[C@H]1/C(=N\OCc2ccccc2)CN1c1cc2c(cc1F)c(=O)c(C(=O)O)cn2[C@@H]1C[C@@H]1F | 2
CCO/N=C1/CN(c2c(F)cc3c(=O)c(C(=O)O)cn([C@@H]4C[C@@H]4F)c3c2OC)CC1CN (some centres undefined) | 16
CO/N=C1/CN(c2cc3c(cc2F)c(=O)c(C(=O)O)cn3[C@@H]2C[C@@H]2F)[C@@H]1CN | 8

The origin of these recorded values is ChEMBL document CHEMBL3352227.
